target: Avi-KRAS WT (2-169) GTP/RAF1 RBD-3xFLAG (51-131) (Homo sapiens); construct: Avi-KRAS WT (2-169); assay: Raf1-KRAS WT-GTP disruption HTRF assay (Biological Example 3); type: binding; conditions: KRAS WT, GTP-loaded
Sequence (P01116 2-169 isoform P01116-2): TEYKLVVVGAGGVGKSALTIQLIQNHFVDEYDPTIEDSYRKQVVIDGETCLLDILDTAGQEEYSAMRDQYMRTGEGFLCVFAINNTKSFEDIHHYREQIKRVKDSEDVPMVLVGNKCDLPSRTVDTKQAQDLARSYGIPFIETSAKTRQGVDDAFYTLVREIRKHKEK
attribute measured: IC50

Query: IC50 of CN(c1nc(OC[C@@]23CCCN2C[C@H](F)C3)nc2c(F)c(-c3ccc(F)c4sc(N)c(C#N)c34)c(C(F)(F)F)cc12)[C@H]1CCCc2ccncc21 (atropisomer, axis not shown) on Avi-KRAS WT (2-169) GTP/RAF1 RBD-3xFLAG (51-131) (Homo sapiens)?
Reply: > 10000 nM

Query: And then CCN(c1nc(OC[C@@]23CCCN2C[C@H](F)C3)nc2c(F)c(-c3ccc(F)c4sc(N)c(C#N)c34)c(C(F)(F)F)cc12)C1CCN(C(=O)C2CC2)C1 (some centres unmarked) , what is it?
Reply: 100 to 1000 nM

Query: And then CCN(c1nc(OC[C@@]23CCCN2C[C@H](F)C3)nc2c(F)c(-c3ccc(F)c4sc(N)c(C#N)c34)c(C(F)(F)F)cc12)[C@H]1CCN(C(=O)C2CC2(F)F)[C@@H]1C (some centres unmarked) , what is it?
Reply: 100 to 1000 nM

Query: And then CCN(c1nc(OC[C@@]23CCCN2C[C@H](F)C3)nc2c(F)c(-c3ccc(F)c4sc(N)c(C#N)c34)c(C(F)(F)F)cc12)[C@H]1CCN(C(=O)N2CCN(C(C)=O)CC2)C1 (atropisomer, axis not shown) , what is it?
Reply: 100 to 1000 nM

Query: And then CN(Cc1ncco1)c1nc(OC[C@@]23CCCN2C[C@H](F)C3)nc2c(F)c(-c3ccc(F)c4sc(N)c(C#N)c34)c(C(F)(F)F)cc12 (atropisomer, axis not shown) , what is it?
Reply: 1000 to 10000 nM
